Task for the reader: assign each of the following variants its reported ratio to parent.
B1: H2-Kb / B15 (parent complex)
chain 1: QQQVRQSPQSLTVWEGETAILNCSYENSAFDYFPWYQQFPGEGPALLISILSVSDKKEDGRFTIFFNKREKKLSLHIADSQPGDSATYFCAASAASNNRLTLGKGTQVVVLP
chain 2: DSGVVQSPRHIIKEKGGRSVLTCIPISGHSNVVWYQQTLGKELKFLIQHYEKVERDKGFLPSRFSVQQFDDYHSEMNMSALELEDSAMYFCASSRRADAEQFFGPGTRLTVL
chain 3: not shown
chain 4: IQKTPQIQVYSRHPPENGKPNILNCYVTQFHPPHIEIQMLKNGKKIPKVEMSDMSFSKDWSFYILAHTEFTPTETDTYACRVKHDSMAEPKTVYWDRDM
chain 5: SIINFEKL

- Variants of: B1
- Test name: % of reporter cells activated (NFAT-GFP), raw; also: test concentration or dose not given here
Answers are plain numbers.

{"Variant annotation": "chain 5 K7E", "Reported endpoint": "ratio to parent", "Numeric value": 0.0434}

Provide ratio to parent values for the following items, in order.
1. chain 5 N4K
2. chain 5 E6M
3. chain 5 S1D
4. chain 5 E6F
5. chain 5 I3C
6. chain 5 I2E
7. chain 5 E6A

1: 0.21; 2: 0.324; 3: 0.898; 4: 0.13; 5: 0.607; 6: 0.915; 7: 0.205

Quick one: give me ratio to parent for each item below, same order please.
1. chain 5 I2N
2. chain 5 E6V

0.974
0.0123

Each variant below has a recorded value; state its ratio to parent.
1. chain 5 E6S
2. chain 5 F5W
3. chain 5 F5G
4. chain 5 N4T
5. chain 5 K7T
6. chain 5 N4C

[0.221, 0.981, 0.792, 0.01, 0.124, 0.0905]

Please go through the list and note ratio to parent for each variant.
1. chain 5 F5C
2. chain 5 N4H
3. chain 5 K7P
4. chain 5 E6R
5. chain 5 I2A
6. chain 5 E6T
7. chain 5 S1L
8. chain 5 S1G

1: 0.834; 2: 0.089; 3: 0.377; 4: 0.221; 5: 0.958; 6: 0.132; 7: 0.456; 8: 0.669

Batch request: ratio to parent for each of the following variants.
1. chain 5 I3G
2. chain 5 I2T

1: 0.362; 2: 1.02

Dear colleague, could you please provide ratio to parent for the variants listed below?
1. chain 5 I3V
2. chain 5 F5L
3. chain 5 S1I
4. chain 5 S1P
5. chain 5 S1H
6. chain 5 N4A
7. chain 5 N4G

[0.798, 0.775, 0.115, 0.545, 0.517, 0.0258, 0.184]

Provide ratio to parent for all items below, preserving their order.
1. chain 5 L8G
2. chain 5 K7V
3. chain 5 L8K

0.75
0.454
0.801

Please report ratio to parent for every entry that follows.
1. chain 5 I3K
2. chain 5 S1M
3. chain 5 S1R
4. chain 5 N4E
5. chain 5 L8W
6. chain 5 I2C

0.71
0.601
1.03
0.26
0.805
0.934

Where do these numbers come from? They come from paper PMC11480844.
